The measurements presented in this section are drawn from the supplement of paper PMC10126150.

System: ATP;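 further: ATP exposure 15 min at 22 °C before imaging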
Test method notes: switch fluorescence ratio, 500 uM ATP over buffer (Cy3 cluster intensity, sum of 5 cycles each) (fold (ratio)); higher = stronger signal-on switching upon ATP binding; sequences stand for … in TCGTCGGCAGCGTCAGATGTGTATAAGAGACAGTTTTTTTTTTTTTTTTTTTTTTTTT…TC
Recorded conditions: aptamer strand: ATP DNA aptamer (quencher-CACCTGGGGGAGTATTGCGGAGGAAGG + anchor), 100 nM annealed; ATP concentration: 500 uM
I'd be grateful if you could share measured switch fluorescence ratio for these entries.
One number for each entry.

Solved entries (count: 8):
CGCTTTAGTG	1.01
GCATGCTGGG	1.04
AACCTCCGTT	1.71
AAGGTGCCGG	1.04
GCGGGGGTG	1.01
GTCCGGGTTT	1.01
AGGAAAAAAG	1
GGTGTCGTCA	1.02

Hello, I would appreciate it if you could give switch fluorescence ratio for each entry below.
1. TAGTAGGTTG
2. TTACCCAGAG
3. GAGATTCGCC
4. AAAGGGTTTC

[0.979, 1.1, 1.02, 1]

Items follow; give switch fluorescence ratio for each.
1. TAAGGATGGT
2. CAGTGACTGT
3. GGTGAAGGTA
4. AACTGCAACA

[0.997, 0.98, 0.929, 1.22]

Give switch fluorescence ratio for all sequences that follow.
1. CATTTAGCTC
2. TTCTGGGGAG
3. TTATTTCTTG
4. CGGGGGAAAA

1. 1.07
2. 1.03
3. 0.994
4. 1.03

* * *

Test system: ATP;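 further: ATP exposure 15 min at 22 °C before imaging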
Test method notes: switch fluorescence ratio, 500 uM ATP over buffer (Cy3 cluster intensity, sum of 5 cycles each) (fold (ratio)); higher = stronger signal-on switching upon ATP binding; sequences stand for … in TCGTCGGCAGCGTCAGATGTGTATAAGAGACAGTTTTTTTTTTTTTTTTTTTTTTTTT…TC
Recorded conditions: aptamer strand: ATP DNA aptamer (quencher-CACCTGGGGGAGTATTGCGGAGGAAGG + anchor), 100 nM annealed; ATP concentration: 500 uM
Endpoint label: switch fluorescence ratio
One number for each entry.

Recorded results for 5 sequences are shown here.
CAGTATCGCG	0.989
TTTTGATTGT	1.01
GTTATTTTAC	1.01
CAGTTATCGT	0.986
CGAGTTAAAA	1

Please give switch fluorescence ratio for each item listed below.
1. TTGGGTTCCG
2. TTAGCGTGGG
3. TGTAGCAGGT
4. TCTGGTTAAA
5. CAGATAAGTG

0.996
0.99
1.15
0.982
1.01

* * *

Tested on: ATP;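 further: ATP exposure 15 min at 22 °C before imaging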
Test method notes: switch fluorescence ratio, 500 uM ATP over buffer (Cy3 cluster intensity, sum of 5 cycles each) (fold (ratio)); higher = stronger signal-on switching upon ATP binding; sequences stand for … in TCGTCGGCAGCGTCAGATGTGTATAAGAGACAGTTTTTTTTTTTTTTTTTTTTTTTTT…TC
Recorded conditions: aptamer strand: ATP DNA aptamer (quencher-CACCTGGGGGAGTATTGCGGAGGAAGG + anchor), 100 nM annealed; ATP concentration: 500 uM
# switch fluorescence ratio >= 1 gives rule met, anything below gives rule not met

Use these answered entries as a reference point.
TACTAATGTT	rule met
ATATGTCTGG	rule not met
AGTTCATTGG	rule met
GCTTACTGCT	rule not met
CGTCGTGATA	rule met

Assess whether reported switch fluorescence ratio for ACTCGTGTAG sits at 1 or higher.
rule met

Does TTTGTAAGGC have a reported switch fluorescence ratio of at least 1?
rule met

Confirm if switch fluorescence ratio reported for the sequence GAGTCCGTAC is 1 or above.
rule met

Record CACAAGGTAT ; criterion: switch fluorescence ratio no lower than 1. Met?
rule met

Kindly determine if switch fluorescence ratio recorded for AGGAATATGG is above or exactly 1.
rule met

Given GCAGCGGGGC , state whether its switch fluorescence ratio is at least 1.
rule met

Reported switch fluorescence ratio reaches at least 1 for TTAGGTTTTT ?
rule met

Does the sequence GCGTTTTACT have recorded switch fluorescence ratio that is 1 or more?
rule met

Is switch fluorescence ratio for TTTTTCGGTA at or above 1?
rule met

Quick check, switch fluorescence ratio >= 1? TATTAGATTC
rule not met

Reported switch fluorescence ratio reaches at least 1 for ACCCTCAAAA ?
rule met

Does the sequence GTCGCAAGGG have recorded switch fluorescence ratio that is 1 or more?
rule met
